# TEST_NAME: physchem
# CONDITION_LABEL: pKa^APP ± SD
MEASUREMENT_KIND: pKa at 18 h

COMPOUND: COc1ccc(CCN2CCC(Nc3nc4ccccc4n3Cc3ccc(F)cc3)CC2)cc1
OBSERVED_VALUE: 9.1

(A) COc1ccc(Cl)cc1C(=O)NCCc1ccc(S(=O)(=O)NC(=O)NC2CCCCC2)cc1 [glybenclamide]
(B) Clc1ccccc1C(c1ccccc1)(c1ccccc1)n1ccnc1
Hi there, can you help? I need to know whether A or B has lower measured pKa at 18 h. Please indicate the selected item by its label.
A
(A: 4.6, B: 7.4)

* * *

# TEST_NAME: equilibrium solubility-pH, direct-UV microtitre plate (μSOL Evolution) with and without excipients
# CONDITION_LABEL: aqueous universal buffer (pION), saturated drug suspension, pKa^APP ± SD, apparent ionization constant; excipient 15 mM NaTC
MEASUREMENT_KIND: pKa at 18 h

SMILES_REPR: OCCN(CCO)c1nc(N2CCCCC2)c2nc(N(CCO)CCO)nc(N3CCCCC3)c2n1
OBSERVED_VALUE: 5.2

(a) Cc1cccc(Nc2ccccc2C(=O)O)c1C
(b) CCCCN(CCCC)CCCOC(=O)c1ccc(N)cc1
For this pair, a and b , which shows a numerically higher pKa at 18 h? Please indicate the selected item by its label.
b
(b: 8.5, a: 5.7)
